study-target: EGFR TMLR (T790M/L858R), H1975 cell line (Homo sapiens, UniProt P00533, L858R/T790M)
Construct: H1975 cell line (CRL-5908; Lot BA70803) was obtained from American Type Culture Collection
Sequence (P00533 25-1210 T790M/L858R): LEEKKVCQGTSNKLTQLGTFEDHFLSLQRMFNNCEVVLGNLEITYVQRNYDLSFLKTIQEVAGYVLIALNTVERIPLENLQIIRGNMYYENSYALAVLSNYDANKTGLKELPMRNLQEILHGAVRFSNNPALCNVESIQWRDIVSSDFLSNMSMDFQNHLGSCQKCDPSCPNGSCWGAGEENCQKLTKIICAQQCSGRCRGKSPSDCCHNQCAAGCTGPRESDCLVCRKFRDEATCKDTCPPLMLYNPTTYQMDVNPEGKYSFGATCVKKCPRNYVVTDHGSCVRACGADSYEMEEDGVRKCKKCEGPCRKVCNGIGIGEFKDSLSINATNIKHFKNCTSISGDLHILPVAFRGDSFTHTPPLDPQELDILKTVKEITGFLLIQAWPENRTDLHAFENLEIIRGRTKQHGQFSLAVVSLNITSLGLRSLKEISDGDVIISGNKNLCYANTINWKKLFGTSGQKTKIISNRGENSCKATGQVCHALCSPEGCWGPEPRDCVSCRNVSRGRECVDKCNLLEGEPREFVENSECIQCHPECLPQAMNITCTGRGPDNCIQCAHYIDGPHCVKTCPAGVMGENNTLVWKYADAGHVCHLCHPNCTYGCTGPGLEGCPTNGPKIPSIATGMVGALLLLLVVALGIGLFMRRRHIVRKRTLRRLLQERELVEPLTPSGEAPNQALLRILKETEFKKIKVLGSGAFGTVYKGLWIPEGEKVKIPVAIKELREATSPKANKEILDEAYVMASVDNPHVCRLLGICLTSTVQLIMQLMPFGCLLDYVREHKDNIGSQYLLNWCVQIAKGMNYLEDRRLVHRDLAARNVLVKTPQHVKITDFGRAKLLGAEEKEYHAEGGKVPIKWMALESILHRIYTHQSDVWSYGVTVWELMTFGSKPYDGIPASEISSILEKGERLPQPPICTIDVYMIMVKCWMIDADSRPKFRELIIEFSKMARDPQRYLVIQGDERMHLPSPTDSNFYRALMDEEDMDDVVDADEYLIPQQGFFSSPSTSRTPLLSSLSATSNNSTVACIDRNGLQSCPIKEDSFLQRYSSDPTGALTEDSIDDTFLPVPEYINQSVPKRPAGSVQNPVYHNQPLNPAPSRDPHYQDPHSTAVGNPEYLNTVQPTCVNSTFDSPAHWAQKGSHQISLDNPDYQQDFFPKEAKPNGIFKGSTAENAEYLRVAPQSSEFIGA
test-method-notes: HTRF Phospho EGFR TMLR Assay (Cellular)
settings: H1975 cells, 16 hours compound incubation
Structures can show the parent of a compound that is named as a salt.
property: log10 IC50 (log10 of the value in nM)
Kindly note that the scale is log10 and the underlying IC50 is in nM.

Please review the following examples before continuing.
[
  {
    "compound": "O=C(Nc1nccs1)C(c1ncn2c1C[C@@H](F)C2)n1cc2c(F)cc(-c3ccc(N4CCNCC4)c(Cl)c3)cc2n1 (stereo partly shown) [Example 6, hydrochloride]",
    "log10 IC50": 0.48
  },
  {
    "compound": "O=C(Nc1nccs1)C(c1ncn2c1CCC2)n1cc2c(Cl)cc(-c3ccc(N4CCNCC4)cc3)c(F)c2n1 (stereo not shown) [Example 15, hydrochloride]",
    "log10 IC50": 0.30
  },
  {
    "compound": "CN1C(=O)CCc2cc(-c3cc(Cl)c4cn(C(C(=O)Nc5nccs5)c5ncn6c5CCC6)nc4c3F)ccc21 (stereo not shown)",
    "log10 IC50": 0.00
  },
  {
    "compound": "COc1c(-c2ccc(C3CCN(C4CC4)CC3)cc2)cc(Cl)c2cn(C(C(=O)Nc3nccs3)c3ncn4c3C[C@@H](F)C4)nc12 (mixture of isomers)",
    "log10 IC50": 0.70
  },
  {
    "compound": "O=C(Nc1nccs1)C(c1ncn2c1CCC2)n1cc2c(Cl)cc(-c3ccc(N4CCNCC4)cc3)c(Cl)c2n1 (stereo not shown) [Example 9, hydrochloride]",
    "log10 IC50": 0.30
  }
]

Readout log10 IC50 for CCN1CCN(c2ccc(-c3cc(F)c4cn(C(C(=O)Nc5nccs5)c5ncn6c5C[C@@H](F)C6)nc4c3)cc2Cl)CC1 (stereo partly shown) , test system EGFR TMLR (T790M/L858R), H1975 cell line (Homo sapiens, UniProt P00533, L858R/T790M), was 0.70

Observed log10 IC50, EGFR TMLR (T790M/L858R), H1975 cell line (Homo sapiens, UniProt P00533, L858R/T790M), CCN1CCN(c2ccc(-c3cc(Cl)c4cn(C(C(=O)Nc5nccs5)c5ncn6c5CCC6)nc4c3Cl)cc2)CC1 (stereo not shown) : 0.00

Record CCN1CCN(c2ccc(-c3cc(Cl)c4cn(C(C(=O)Nc5nccs5)c5ncn6c5C[C@@H](F)C6)nc4c3OC)cc2)CC1 (mixture of isomers) / EGFR TMLR (T790M/L858R), H1975 cell line (Homo sapiens, UniProt P00533, L858R/T790M), log10 IC50 recorded as 0.48

Record CC(C)n1ccc(-c2cc(Cl)c3cn(C(C(=O)Nc4nccs4)c4ncn5c4CCC5)nc3c2F)cc1=O (stereo not shown) / EGFR TMLR (T790M/L858R), H1975 cell line (Homo sapiens, UniProt P00533, L858R/T790M), log10 IC50 recorded as 0.00

GET /values?item= O=C(Nc1nccs1)C(c1ncn2c1CCC2)n1cc2c(Cl)cc(-c3ccc(N4CCNCC4)cc3)cc2n1 (stereo not shown) [Example 1, hydrochloride] &system= EGFR TMLR (T790M/L858R), H1975 cell line (Homo sapiens, UniProt P00533, L858R/T790M) returns log10 IC50: 0.48

Kindly note: EGFR TMLR (T790M/L858R), H1975 cell line (Homo sapiens, UniProt P00533, L858R/T790M), CC(=O)N1CCN(c2ccc(-c3cc(Cl)c4cn(C(C(=O)Nc5nccs5)c5ncn6c5CCC6)nc4c3Cl)cc2)CC1 (stereo not shown) , log10 IC50 value reported: 0.00

The compound CC(=O)N1CCN(c2ccc(-c3cc(Cl)c4cn(C(C(=O)Nc5nccs5)c5ncn6c5CCC6)nc4c3)cc2)CC1 (stereo not shown) on EGFR TMLR (T790M/L858R), H1975 cell line (Homo sapiens, UniProt P00533, L858R/T790M): log10 IC50 was -0.40

Reading of log10 IC50 for COc1c(-c2ccc3c(c2)CCC(=O)N3C)cc(Cl)c2cn(C(C(=O)Nc3nccs3)c3ncn4c3C[C@@H](F)C4)nc12 (mixture of isomers) with EGFR TMLR (T790M/L858R), H1975 cell line (Homo sapiens, UniProt P00533, L858R/T790M): 0.00
